Provenance of the data: patent EP2140864A2

- MEASUREMENT_TARGET: human dopamine D1 (Homo sapiens, UniProt P21728)
- Construct: purchased BioSignal, Inc. (Montreal, Canada); host or cells: membranes of cells expressing the receptor
- Sequence (P21728 whole entry): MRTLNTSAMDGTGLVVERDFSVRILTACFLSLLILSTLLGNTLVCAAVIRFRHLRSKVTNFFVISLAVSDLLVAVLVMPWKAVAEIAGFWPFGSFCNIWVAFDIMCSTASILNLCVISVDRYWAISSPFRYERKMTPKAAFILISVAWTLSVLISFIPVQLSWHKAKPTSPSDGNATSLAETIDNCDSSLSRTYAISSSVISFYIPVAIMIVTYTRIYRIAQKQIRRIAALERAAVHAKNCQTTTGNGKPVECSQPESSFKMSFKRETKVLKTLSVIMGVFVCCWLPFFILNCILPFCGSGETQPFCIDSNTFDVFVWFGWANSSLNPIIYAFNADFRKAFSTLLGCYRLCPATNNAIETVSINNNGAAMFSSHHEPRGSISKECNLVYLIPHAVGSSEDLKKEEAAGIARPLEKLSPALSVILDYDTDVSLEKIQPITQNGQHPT
- METHOD: Radioligand binding, dopamine D1 receptor
- SETUP_CONDITIONS: read-out: hD1 Ki; Table 9
EXPERIMENTAL_ENDPOINT: Ki (µM)
Entry rule: numbers only, all in µM.

Task: Give human dopamine D1 (Homo sapiens, UniProt P21728) Ki for the following compound: COC[C@@H]1[C@@H](c2ccccc2)OCCN1c1nc(Nc2ccc(C)cc2)cc(N2CCCCC2)n1 [Example 49]
Result: 3.78
